- Tested on: RAW264.7
- Assay Method Text: Inhibition of NO production in LPS-stimulated mouse RAW264.7 cells preincubated with compound for 24 hrs followed by LPS stimulation and measured after 2 hrs by Griess reagent-based assay
- Type: functional, cell-based
Assay Endpoint: IC50
Record the result as number plus unit.

Look up IC50 for this molecule: C=CC(C)(C)c1[nH]c2cc3c(cc2c1/C=C1\NC(=O)[C@@H]2CCCN2C1=O)C=CC(C)(C)O3
11.2 µM

---

- Test system: RAW264.7
- Assay Method Text: Antiinflammatory activity against mouse RAW264.7 cells assessed as inhibition of cell growth
- Assay type: functional, cell-based
I'd appreciate it if you could supply pIC50 values for the items below.
Conceptually, pIC50 converts a concentration in mol/L into minus its log10.

Would you mind telling me what pIC50 value was observed for Cc1ccc(-c2cc(C(F)(F)F)nn2-c2ccc(S(N)(=O)=O)cc2)cc1 ?
4.46

Could you share which pIC50 value was measured for COC(=O)[C@@]1(O)C2=Nc3c(O)cccc3[C@@]23C[C@H]2C[C@]4(C(C)=O)ON2[C@H]3C[C@H]14 ?
4.40

---

- System: Prostaglandin G/H synthase 1 (Homo sapiens, UniProt P23219)
- Sequence (P23219 whole entry): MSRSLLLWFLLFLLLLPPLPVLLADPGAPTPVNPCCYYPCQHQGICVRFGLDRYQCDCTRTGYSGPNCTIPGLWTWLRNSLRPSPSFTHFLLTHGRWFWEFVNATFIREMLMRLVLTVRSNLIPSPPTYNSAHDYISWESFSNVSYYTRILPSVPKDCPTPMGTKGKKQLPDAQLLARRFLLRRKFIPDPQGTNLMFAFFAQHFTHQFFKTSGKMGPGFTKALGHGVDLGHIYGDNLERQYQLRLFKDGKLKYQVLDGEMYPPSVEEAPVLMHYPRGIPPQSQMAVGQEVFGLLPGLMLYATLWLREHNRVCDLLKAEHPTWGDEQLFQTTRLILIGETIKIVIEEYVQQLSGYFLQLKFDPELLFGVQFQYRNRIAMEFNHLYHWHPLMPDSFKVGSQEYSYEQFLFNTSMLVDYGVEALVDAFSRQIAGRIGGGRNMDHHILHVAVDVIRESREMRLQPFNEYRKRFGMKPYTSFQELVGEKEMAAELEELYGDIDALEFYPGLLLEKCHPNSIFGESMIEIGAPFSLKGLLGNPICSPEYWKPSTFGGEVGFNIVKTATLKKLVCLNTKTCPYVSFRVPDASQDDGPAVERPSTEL
Assay Endpoint: pIC50
pIC50 field: float, defined as -log10 of concentration (mol/L).

Requested read-out pIC50, target or system Prostaglandin G/H synthase 1 (Homo sapiens, UniProt P23219), entry CC(C)CC(=O)NC[C@H](O)CC[C@@H](CO)NC(=O)c1nc2ccccc2cc1O
5.12

---

Task for the reader: assign each of the following molecules its reported IC50.
- System: Prostaglandin G/H synthase 2 (Homo sapiens, UniProt P35354)
- Sequence (P35354 whole entry): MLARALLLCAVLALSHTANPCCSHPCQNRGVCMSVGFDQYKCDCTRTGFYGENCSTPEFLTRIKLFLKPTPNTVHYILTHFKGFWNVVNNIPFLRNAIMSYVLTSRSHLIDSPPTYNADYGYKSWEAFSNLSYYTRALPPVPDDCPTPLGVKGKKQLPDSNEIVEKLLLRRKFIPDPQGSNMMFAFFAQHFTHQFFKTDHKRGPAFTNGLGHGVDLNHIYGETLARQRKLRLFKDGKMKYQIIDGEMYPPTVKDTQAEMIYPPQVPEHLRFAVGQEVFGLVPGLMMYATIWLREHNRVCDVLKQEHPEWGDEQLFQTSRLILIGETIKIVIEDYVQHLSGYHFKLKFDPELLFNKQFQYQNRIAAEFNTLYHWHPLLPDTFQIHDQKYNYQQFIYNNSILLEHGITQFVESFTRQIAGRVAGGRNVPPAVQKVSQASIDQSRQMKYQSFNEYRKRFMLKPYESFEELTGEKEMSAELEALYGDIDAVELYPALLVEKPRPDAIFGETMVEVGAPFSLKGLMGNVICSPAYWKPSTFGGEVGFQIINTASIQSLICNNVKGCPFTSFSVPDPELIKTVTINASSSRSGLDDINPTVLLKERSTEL
- Assay Method Text: Inhibition of COX-2 (unknown origin) by colorimetric analysis
Answer format: numeric, µM implied, no suffix.

What value of IC50 has been recorded for this entry: CC(C)CC(=O)NC[C@H](O)CC[C@@H](CO)NC(=O)c1nc2ccccc2cc1O
2.1

Dear colleague, I am looking for the recorded IC50 of the following molecule: CC(C)CC(=O)NC[C@H]1CC[C@H](NC(=O)c2nc3ccccc3cc2O)[C@H](O)O1
1.4

---

Kindly supply the reported IC50 values for the records listed here.
- System: RAW264.7
- Assay Method Text: Inhibition of NO production in LPS-stimulated mouse RAW264.7 cells preincubated with compound for 30 mins followed by LPS stimulation and measured after 24 hrs by Griess reagent-based assay
- Format: functional, cell-based
Respond with the bare value in µM.

Entry under review: COc1c(O)ccc2c1cnc1c3cc4c(cc3ccc21)OCO4 [DECARINE] . Reported IC50?
48.4

# IC50 lookup, item O=C(C1C=CC(c2ccc3c(c2)OCO3)C(/C=C/c2ccc3c(c2)OCO3)C1C(=O)N1CCCCC1)N1CCCCC1 (configuration not stated)
6.8
